Data provenance is patent US20220402995A1.

# Target Under Test: T1, VLP2 (virus-like particles of AAV2) (AAV2, UniProt P03135 1-735; P03135 1-598; P03135 1-533)
# T1 construct: Empty AAV2 capsid; background says about 60 protein molecules, VP1:VP2:VP3 = 1:1:10; Immobilised on the ELISA plate
# T1 sequence (P03135 whole entry, chain 1 of 3): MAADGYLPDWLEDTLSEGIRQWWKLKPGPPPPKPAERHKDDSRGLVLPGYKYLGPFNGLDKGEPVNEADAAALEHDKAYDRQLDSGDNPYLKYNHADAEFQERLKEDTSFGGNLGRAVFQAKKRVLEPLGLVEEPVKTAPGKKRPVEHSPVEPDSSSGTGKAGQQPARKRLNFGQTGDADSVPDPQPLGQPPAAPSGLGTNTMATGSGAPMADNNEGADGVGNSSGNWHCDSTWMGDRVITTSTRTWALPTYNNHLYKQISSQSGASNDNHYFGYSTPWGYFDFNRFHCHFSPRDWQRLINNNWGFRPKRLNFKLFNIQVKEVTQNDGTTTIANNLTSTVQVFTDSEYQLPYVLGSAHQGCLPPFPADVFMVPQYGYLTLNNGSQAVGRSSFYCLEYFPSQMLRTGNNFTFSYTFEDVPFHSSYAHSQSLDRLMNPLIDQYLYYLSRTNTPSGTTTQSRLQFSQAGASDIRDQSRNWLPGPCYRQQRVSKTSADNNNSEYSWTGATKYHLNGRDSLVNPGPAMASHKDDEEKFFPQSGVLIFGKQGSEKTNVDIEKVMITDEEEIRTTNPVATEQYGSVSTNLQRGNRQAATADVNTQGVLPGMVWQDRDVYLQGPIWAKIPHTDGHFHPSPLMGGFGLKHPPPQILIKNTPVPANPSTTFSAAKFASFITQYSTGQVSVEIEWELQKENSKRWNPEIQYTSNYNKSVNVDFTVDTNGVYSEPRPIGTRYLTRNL
# T1 sequence (P03135 139-735, tags left off, chain 2 of 3): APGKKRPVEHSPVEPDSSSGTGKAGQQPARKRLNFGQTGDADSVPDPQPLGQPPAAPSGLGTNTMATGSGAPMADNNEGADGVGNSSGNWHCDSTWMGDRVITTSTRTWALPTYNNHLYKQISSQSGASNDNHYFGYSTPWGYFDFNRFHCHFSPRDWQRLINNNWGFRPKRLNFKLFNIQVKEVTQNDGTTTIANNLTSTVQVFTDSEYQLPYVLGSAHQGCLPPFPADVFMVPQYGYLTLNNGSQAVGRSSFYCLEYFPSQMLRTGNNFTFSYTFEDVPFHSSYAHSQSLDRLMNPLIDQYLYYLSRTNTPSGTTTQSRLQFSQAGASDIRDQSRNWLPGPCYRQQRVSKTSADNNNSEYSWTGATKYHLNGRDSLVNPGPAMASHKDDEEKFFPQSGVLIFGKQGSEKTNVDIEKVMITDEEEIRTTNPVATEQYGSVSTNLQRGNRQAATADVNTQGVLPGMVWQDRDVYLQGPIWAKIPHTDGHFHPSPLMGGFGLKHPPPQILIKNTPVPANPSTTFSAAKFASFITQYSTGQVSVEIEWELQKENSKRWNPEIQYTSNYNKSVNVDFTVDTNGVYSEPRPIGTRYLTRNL
# T1 sequence (P03135 203-735, chain 3 of 3): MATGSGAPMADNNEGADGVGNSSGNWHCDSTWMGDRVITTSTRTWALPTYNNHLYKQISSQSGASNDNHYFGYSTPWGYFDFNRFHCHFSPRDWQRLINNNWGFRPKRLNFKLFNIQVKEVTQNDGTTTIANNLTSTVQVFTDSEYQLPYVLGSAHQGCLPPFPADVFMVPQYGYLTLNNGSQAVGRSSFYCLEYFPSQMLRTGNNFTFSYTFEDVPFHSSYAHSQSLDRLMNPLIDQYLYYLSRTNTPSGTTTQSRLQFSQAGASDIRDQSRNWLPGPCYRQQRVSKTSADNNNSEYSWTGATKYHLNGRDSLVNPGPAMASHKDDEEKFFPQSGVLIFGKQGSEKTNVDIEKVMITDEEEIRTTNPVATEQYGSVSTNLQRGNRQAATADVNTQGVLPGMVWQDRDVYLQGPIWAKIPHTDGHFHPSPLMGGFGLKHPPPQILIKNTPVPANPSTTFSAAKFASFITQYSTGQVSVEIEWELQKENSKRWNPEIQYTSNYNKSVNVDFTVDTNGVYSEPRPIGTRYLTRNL
# Procedure Details: ELISA on VLP2; binding after pH 3.0 61.0°C 15 min / untreated
Measurement Name: Residual activity [%] (%)
Express your answer in %, writing the number without its unit.

stdin: Can you share its Residual activity [%]? I mean this binder: AAV-binding protein No. 85 (AVR5e + Val317Asp) (receptor) MGSAGESDQITLPKNEVQLNAYVLQEPPKGETCTYDWQLITHPRDYSGEMEGKHSQILKLSKLTPGLYEFKVIVEGQNAHSEGYVNVTVEPEPRKNRPPIAIVSPQFQEISLPTTSTVIDGSQSTDDDKIVQYHWEELKGPLREEKISEDTAILKLSKLVPGNYTFRLTVVDSDGATDSTTANLTVNKAVDHHHHHH
stdout: 50.2
